target: mouse TRPV1 (mV1) (Mus musculus); experiment: Agonist activation, patch clamp, HEK293T; format: cell-based; conditions: Supp Table 2 data, replicate 2; read-out: EC50_Capsaicin
pEC50: −log10 of the molar value.

{"Compound string": "COc1cc(CNC(=O)CCCC/C=C/C(C)C)ccc1O", "pEC50": 6.52}

====

biological target: mV1 S833A (Mus musculus, UniProt Q704Y3, S833A); test: Agonist activation, patch clamp, HEK293T; assay type: cell-based; conditions: mean ± s.e.m., n = 3; read-out: EC50_Capsaicin
Sequence (Q704Y3 whole entry S833A): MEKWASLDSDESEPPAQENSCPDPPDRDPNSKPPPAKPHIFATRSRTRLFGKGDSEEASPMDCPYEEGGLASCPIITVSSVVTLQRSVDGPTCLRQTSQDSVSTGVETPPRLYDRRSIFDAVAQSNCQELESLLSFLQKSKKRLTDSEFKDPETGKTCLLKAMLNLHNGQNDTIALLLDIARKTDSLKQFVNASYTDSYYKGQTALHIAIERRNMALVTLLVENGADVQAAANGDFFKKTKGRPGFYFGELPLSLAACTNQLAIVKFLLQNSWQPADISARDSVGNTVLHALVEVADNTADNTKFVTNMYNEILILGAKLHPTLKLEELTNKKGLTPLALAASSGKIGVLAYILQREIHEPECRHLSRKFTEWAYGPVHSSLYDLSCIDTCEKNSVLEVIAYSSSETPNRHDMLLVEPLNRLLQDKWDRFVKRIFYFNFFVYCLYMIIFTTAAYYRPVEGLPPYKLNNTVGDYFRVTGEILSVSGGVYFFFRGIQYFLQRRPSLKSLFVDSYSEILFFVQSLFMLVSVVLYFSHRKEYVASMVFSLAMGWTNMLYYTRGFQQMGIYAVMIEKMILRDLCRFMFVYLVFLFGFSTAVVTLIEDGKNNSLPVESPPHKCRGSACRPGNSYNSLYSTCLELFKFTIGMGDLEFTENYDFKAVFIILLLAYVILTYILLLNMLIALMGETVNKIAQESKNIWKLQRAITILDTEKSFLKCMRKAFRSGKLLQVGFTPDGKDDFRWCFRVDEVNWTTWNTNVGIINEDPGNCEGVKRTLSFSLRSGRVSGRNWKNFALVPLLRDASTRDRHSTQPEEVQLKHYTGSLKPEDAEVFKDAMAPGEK

{"Compound string": "COc1cc(CNC(=O)CCCC/C=C/C(C)C)ccc1O", "EC50 / nM": 344}

====

molecular target: mV1_579 (ANAP) (Mus musculus, UniProt Q704Y3, C579X); assay: Agonist activation of ANAP-incorporated channel, patch clamp

{"Compound string": "COc1cc(CNC(=O)CCCC/C=C/C(C)C)ccc1O", "EC50 (nM)": 293}

====

target: mV1 T371G (Mus musculus, UniProt Q704Y3, T371G); assay: Agonist activation, patch clamp, HEK293T; format: cell-based; conditions: mean ± s.e.m., n = 3; read-out: EC50_Capsaicin
Sequence (Q704Y3 whole entry T371G): as the sequence (Q704Y3 whole entry S833A) above, with T371G, A833S counted along it
pEC50: −log10 of the molar value.

{"Compound": "COc1cc(CNC(=O)CCCC/C=C/C(C)C)ccc1O [Capsaicin, capsaicin]", "pEC50": 6.49}

====

biological target: UniProt:F7A7B4; experiment: Agonist activation, patch clamp, HEK293T; assay type: cell-based, platypus / mouse; conditions: mean ± s.e.m., n = 6; read-out: EC50_Capsaicin
pEC50: −log10 of the molar value.
Readout: pEC50

{"Compound": "COc1cc(CNC(=O)CCCC/C=C/C(C)C)ccc1O [Capsaicin, capsaicin]", "Obs value": 6.50}

====

molecular target: mV1 CΔ23 (Ser777-Asp799) (Mus musculus, UniProt Q704Y3, DEL777-799); assay: Agonist activation, patch clamp, HEK293T; type: cell-based; settings: mean ± s.e.m., n = 3; read-out: EC50_Capsaicin
Sequence (Q704Y3 with tags, fused parts or gaps DEL777-799): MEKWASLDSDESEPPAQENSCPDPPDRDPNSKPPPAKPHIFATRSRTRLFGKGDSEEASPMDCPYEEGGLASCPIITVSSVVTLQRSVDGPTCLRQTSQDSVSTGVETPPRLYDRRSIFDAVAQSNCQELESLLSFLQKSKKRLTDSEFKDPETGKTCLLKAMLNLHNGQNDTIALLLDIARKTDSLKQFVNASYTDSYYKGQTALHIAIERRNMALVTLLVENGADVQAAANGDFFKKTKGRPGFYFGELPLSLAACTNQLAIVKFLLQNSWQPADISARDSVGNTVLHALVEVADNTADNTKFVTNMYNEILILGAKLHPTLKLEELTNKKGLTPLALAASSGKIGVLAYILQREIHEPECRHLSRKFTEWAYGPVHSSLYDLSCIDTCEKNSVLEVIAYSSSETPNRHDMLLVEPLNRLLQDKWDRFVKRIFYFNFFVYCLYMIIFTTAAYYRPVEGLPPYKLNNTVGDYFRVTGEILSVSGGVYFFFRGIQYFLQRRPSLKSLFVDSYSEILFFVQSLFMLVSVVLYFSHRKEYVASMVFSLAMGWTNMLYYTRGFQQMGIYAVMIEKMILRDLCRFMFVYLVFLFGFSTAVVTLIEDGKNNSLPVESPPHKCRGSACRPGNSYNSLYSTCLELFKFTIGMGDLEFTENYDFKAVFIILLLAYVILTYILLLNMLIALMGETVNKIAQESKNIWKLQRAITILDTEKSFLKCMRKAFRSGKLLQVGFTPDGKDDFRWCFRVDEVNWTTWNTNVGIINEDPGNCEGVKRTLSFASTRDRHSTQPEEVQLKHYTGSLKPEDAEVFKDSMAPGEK
pEC50: −log10 of the molar value.
Readout: pEC50

{"Compound string": "COc1cc(CNC(=O)CCCC/C=C/C(C)C)ccc1O", "Obs value": 6.40}

====

molecular target: mouse TRPV1 (mV1) (Mus musculus); assay: Agonist activation, patch clamp, HEK293T; type: cell-based; details: Supp Table 1 data, replicate 2; read-out: EC50_Capsaicin

{"Compound string": "COc1cc(CNC(=O)CCCC/C=C/C(C)C)ccc1O", "EC50": "0.299 µM"}

====

biological target: UniProt G1DJ79; experiment: Agonist activation, patch clamp, HEK293T; type: cell-based; settings: mean ± s.e.m., n = 6; read-out: EC50_Capsaicin
Sequence (G1DJ79 1-838): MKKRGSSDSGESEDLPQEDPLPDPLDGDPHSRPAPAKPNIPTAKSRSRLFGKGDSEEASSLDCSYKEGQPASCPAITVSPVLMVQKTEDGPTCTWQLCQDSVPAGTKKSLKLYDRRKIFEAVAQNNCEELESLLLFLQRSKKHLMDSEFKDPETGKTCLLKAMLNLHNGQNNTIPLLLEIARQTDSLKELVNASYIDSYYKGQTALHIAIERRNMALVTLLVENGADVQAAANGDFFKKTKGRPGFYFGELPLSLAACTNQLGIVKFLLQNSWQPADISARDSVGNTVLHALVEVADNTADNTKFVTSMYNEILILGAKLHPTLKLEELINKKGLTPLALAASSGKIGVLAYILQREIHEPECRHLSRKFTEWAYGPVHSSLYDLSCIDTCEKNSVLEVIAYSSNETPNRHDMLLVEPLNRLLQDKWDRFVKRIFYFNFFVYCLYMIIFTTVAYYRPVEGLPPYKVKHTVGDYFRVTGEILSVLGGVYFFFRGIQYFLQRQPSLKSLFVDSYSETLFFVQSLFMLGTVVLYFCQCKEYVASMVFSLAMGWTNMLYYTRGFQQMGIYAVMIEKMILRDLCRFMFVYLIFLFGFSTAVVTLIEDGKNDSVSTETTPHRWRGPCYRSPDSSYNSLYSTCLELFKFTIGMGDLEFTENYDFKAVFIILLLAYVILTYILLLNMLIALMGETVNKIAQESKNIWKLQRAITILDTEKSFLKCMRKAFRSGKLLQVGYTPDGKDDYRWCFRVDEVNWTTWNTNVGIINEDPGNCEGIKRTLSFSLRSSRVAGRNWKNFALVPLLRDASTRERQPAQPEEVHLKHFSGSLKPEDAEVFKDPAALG
Readout: EC50 (nM)

{"Compound string": "COc1cc(CNC(=O)CCCC/C=C/C(C)C)ccc1O", "Uom": "nM", "Obs value": 354}

====

target: mV1 F830A (Mus musculus, UniProt Q704Y3, F830A); experiment: Agonist activation, patch clamp, HEK293T; assay type: cell-based; details: mean ± s.e.m., n = 3; read-out: EC50_Capsaicin
pEC50: −log10 of the molar value.

{"Compound string": "COc1cc(CNC(=O)CCCC/C=C/C(C)C)ccc1O", "Target": "mV1 F830A (Mus musculus, UniProt Q704Y3, F830A)", "pEC50": 6.47}
